# Target Of Assay: human complement C3 (human, UniProt P01024 23-1663)
# Sequence (P01024 23-1663 limits assumed): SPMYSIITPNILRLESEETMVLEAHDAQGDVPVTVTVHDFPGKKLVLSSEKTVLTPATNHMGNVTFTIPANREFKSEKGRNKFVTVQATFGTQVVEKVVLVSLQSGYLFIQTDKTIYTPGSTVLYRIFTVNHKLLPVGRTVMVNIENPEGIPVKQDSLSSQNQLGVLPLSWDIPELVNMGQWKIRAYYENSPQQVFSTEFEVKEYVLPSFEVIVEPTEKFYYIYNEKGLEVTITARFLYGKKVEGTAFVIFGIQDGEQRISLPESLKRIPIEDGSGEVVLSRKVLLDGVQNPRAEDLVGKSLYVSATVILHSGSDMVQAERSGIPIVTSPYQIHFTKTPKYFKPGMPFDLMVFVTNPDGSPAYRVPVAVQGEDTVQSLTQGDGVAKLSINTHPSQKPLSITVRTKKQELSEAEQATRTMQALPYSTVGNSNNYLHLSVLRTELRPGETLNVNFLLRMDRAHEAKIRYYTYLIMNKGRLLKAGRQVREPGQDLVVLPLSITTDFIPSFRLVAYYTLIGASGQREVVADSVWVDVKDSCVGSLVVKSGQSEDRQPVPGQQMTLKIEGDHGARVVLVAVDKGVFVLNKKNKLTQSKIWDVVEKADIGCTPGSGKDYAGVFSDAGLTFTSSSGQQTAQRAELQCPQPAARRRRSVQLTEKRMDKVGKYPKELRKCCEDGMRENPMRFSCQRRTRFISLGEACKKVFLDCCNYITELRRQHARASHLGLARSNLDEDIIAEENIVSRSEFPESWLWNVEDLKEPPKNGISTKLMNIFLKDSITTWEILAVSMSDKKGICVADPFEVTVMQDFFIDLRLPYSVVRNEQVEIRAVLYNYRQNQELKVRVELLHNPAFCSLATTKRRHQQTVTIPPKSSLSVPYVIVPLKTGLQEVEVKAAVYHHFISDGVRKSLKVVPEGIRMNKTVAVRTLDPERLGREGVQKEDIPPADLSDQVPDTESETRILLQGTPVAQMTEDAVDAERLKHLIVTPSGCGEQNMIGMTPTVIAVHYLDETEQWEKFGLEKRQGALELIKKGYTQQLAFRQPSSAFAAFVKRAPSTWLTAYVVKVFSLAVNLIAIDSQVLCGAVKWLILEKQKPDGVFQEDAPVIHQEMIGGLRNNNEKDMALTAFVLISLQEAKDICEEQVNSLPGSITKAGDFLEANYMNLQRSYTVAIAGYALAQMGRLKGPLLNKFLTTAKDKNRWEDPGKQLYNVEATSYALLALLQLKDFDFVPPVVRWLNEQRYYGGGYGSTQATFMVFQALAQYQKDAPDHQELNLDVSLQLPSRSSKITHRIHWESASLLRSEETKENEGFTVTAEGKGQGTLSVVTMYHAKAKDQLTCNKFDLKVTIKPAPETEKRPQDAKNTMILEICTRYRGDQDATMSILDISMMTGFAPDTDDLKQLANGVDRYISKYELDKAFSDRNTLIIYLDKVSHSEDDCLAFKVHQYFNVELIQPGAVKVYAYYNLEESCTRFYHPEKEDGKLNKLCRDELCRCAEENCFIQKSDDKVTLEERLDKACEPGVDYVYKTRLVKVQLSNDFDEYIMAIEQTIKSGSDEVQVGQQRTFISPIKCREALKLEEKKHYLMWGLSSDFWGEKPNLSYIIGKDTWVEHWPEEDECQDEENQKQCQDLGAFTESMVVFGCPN
# Test Summary: cell-based or functional assay
Could you please report measured IC50, complement inhibition in the alternative pathway for the items listed next?
One number for each entry, in µM.

Each of the following entries comes with a recorded value; kindly state IC50, complement inhibition in the alternative pathway for each.
1. Clone IV (scFv) scFv: QSVKESGGRLVTPGTPLTLTCTVSGFSLYNYAMNWVRQAPGKGLEWIGIINTDGNTNYASWAKGRFTISTTSSTTVDLKITSPTTEDTATYFCPRAVGYHHHALDPWGPGTLVTVSSGGGGSGGGGSGGGGSGGGGASELVLTQSPSVSAALGASAKLTCTLSSAHKTYTIDWYQQQQGEAPRYLMQLKSDGSYTKGTGVPDRFSGSSSGADRYLIIPSVQADDEADYYCGTDYGGGYVFGGGTQLTVTG
2. Clone XIII (scFv) scFv: MQLVLTQSPSASASLGASVKLTCTLSSAHKTYTIDWYQQQPEKCPRYLMQLKSEGSYTKGTGVPDRFSGSSSGAERYLTISSLQSEDEADYYCGTEGVGGYVFGGGTKLTVLGGGGGSGGGGSGGGGSGGGGSQVQVVESGGGSVQPGRSLRLSCAVSGFSLYNYAMNWVRQAPGKGLEWIGIINVGGGTNYASWAKGRFTISTDNSKNTVYLQMNSLRAEDTASYYCARAVGYHHARLDPWGCGTSVTVSS
3. Clone XII (scFv) scFv: MQLVLTQSPSASASLGASVKLTCTLSSAHKTYTIDWYQQQPEKCPRYLMQLKSEGSYTKGTGVPDRFSGSSSGAERYLTISSLQSEDEADYYCGTDYGGGYVFGGGTKLTVLGGGGGSGGGGSGGGGSGGGGSQVQVVESGGGSVQPGRSLRLSCAVSGFSLYNYAMNWVRQAPGKGLEWIGIINVGGGTNYASWAKGRFTISTDNSKNTVYLQMNSLRAEDTASYYCARAVGYHHARLDPWGCGTSVTVSS
4. Clone XIV (scFv, also called Cone XIV) scFv: MQLVLTQSPSASASLGASVKLTCTLSSAHKTYTIDWYQQQPEKCPRYLMQLKSEGSYTKGTGVPDRFSGSSSGAERYLTISSLQSEDEADYYCGTEGVGGYVFGGGTKLTVLGGGGGSGGGGSGGGGSGGGGSQVQVVESGGGSVQPGRSLRLSCAVSGFSLYNYAMNWVRQAPGKGLEWIGIINVGGGTNYASWAKGRFTISTDNSKNTVYLQMNSLRAEDTASYYCARAVGYHHSRLDPWGCGTSVTVSS

Response given:
1. 0.28
2. 0.26
3. 0.21
4. 0.25
